Data origin, for the record: the supplement of paper PMC11208160

assay.protocol: recombinant barcode read abundance after kanamycin selection (control-corrected) (log10(CPM+1)); higher = more efficient recombination; sequences stand for … in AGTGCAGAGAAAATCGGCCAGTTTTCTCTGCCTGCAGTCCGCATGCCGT…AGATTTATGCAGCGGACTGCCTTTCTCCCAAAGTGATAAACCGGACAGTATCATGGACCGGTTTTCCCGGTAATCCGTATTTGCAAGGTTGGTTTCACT; site = the 11-nt target;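 further: IS621 recombinase and bridge RNA in Escherichia coli cells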
quantity.kind: recombinant barcode read abundance (log10)

// worked examples, recombinant barcode read abundance (log10) included
* CTACAGACTTGGGTTCTAACCTGTTGCGT (site CTACAGACTCC) | 0.229
* AGCTAATCTTGGGTTCTAACCTGTTGCTT (site AGCTAATCTAA) | 0.0369
* TCCTTCTCTTGGGTTCTAACCTGTTGCCT (site GAGGGGACTCT) | 0.103

Q: Answer with reported recombinant barcode read abundance (log10) of ATAGGGACTTGGGTTCTAACCTGTTGCTA (site ATACGGACTTA)
A: 0.291

Q: Answer with reported recombinant barcode read abundance (log10) of CCTCGGCCTTGGGTTCTAACCTGTTGCAT (site CCACGGCCTAT)
A: 0.0708

Q: Answer with reported recombinant barcode read abundance (log10) of CGGCACACTTGGGTTCTAACCTGTTGCGG (site CGGTACACTCC)
A: 0.582

Q: Answer with reported recombinant barcode read abundance (log10) of GTCCCTCCTTGGGTTCTAACCTGTTGCAT (site GTCCCTCCTAA)
A: 0.746

Q: Answer with reported recombinant barcode read abundance (log10) of TGCCTATCTTGGGTTCTAACCTGTTGCTT (site TGCCTATCTAA)
A: 0.52
